- System: DCAMKL2
- Construct: gene DCLK2
- Assay Context: Compound Concentration (nM):1000;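 note: KINOMEscan scanMAX binding as percent activity remaining versus control; lower means stronger binding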
Simple rule here: Percent Control less than 80% is true (1), otherwise false (0).

For orientation, consider the following solved cases.
Compound | Label Class
O=C(Nc1n[nH]c2nc(-c3ccc(O)cc3)c(Br)cc12)C1CC1 | false (0)
O=C1Nc2ccc(C(=O)c3ccco3)cc2C1=Cc1cc(Cl)c(O)c(Cl)c1 [GW406108X] | false (0)
COc1ccc2cc(-c3c(-c4ccncc4)nc(-c4ccc(S(C)(=O)=O)cc4C)n3C)ccc2c1 | false (0)
COc1cc(C)c(N(C)C(=O)CN(C)C)cc1Nc1nc(Nc2cccc(F)c2C(N)=O)c2cc[nH]c2n1 | false (0)
CC1=C(C(=O)Nc2ccc3[nH]ncc3c2)C(c2ccc(Cl)c(Cl)c2)CC(=O)N1 (stereo not drawn) [GSK299115A] | true (1)

stdin: Percent Control strictly < 80% for this compound? CC1=C(C(=O)Nc2ccc3[nH]ncc3c2)C(c2ccc3ccccc3c2)CC(=O)N1 (stereo not drawn) [GSK270822A]
stdout: true (1)

---

- System: RIPK4
- Assay Context: Compound Concentration (nM):1000
Measured Metric: Percent Control
Please state the number and follow it with the unit.

Below, 5 compounds whose answers are already recorded.
Compound | Percent Control
CCS(=O)(=O)c1ccc(OC)c(Nc2ncc(-c3cccc(F)c3)o2)c1 [GW621970X] | 100%
COc1cc2ncn(-c3cc(O[C@H](C)c4ccccc4Cl)c(C(N)=O)s3)c2cc1OC [GSK237701A] | 87%
NS(=O)(=O)c1ccc(Nc2ncc(-c3ccccc3)o2)cc1 [GW572399X] | 100%
CC(C)COC(=O)c1ccc2c(c1)/C(=C/Nc1ccc(S(N)(=O)=O)cc1)C(=O)N2 [GW416981X] | 100%
COc1cc(C)c(N(C)C(=O)CN(C)C)cc1Nc1nc(Nc2cccc(F)c2C(N)=O)c2cc[nH]c2n1 | 74%

# Percent Control of NS(=O)(=O)c1ccc(N/N=C2\C(=O)Nc3ccc(C(=O)NCCc4c[nH]cn4)cc32)cc1 [GW300660X] = 80%

# Percent Control of CC1=C(C(=O)Nc2ccc3[nH]ncc3c2)C(c2ccc(Cl)c(Cl)c2)CC(=O)N1 (centres unmarked) [GSK299115A] = 78%

# Percent Control of Cl.O=C(O[C@H]1CN[C@H](C#Cc2cc3ncnc(Nc4ccc5c(cnn5Cc5ccccc5)c4)c3s2)C1)N1CCOCC1 [GSK200398A] = 84%

# Percent Control of COc1cc(/C=N/Nc2ncnc3[nH]ncc23)ccc1O [GW578748X] = 6.9%

---

- System: PIKFYVE
- Assay Context: Compound Concentration (nM):1000
Measured Metric: Percent Control (%)
Form entry: value (%) — number only.

Below, 6 molecules whose answers are already recorded.
Molecule | Percent Control, %
COc1cc(C=NNc2ncnc3c2cnn3-c2ccccc2)ccc1O [GW513184X] | 4.9
CC1=C(C(=O)Nc2ccc3[nH]ncc3c2)C(c2ccc(Cl)c(Cl)c2)CC(=O)N1 (stereo not shown) [GSK299115A] | 100
COc1ccc2[nH]c3c4[nH]c5ccc(OC)cc5c4c4c(c3c2c1)C(=O)NC4=O [GW296115X] | 0
COc1cc(N2CCN(C(C)C)CC2)ccc1Nc1nc(Nc2ccc(F)cc2C(=O)NC[C@@H](O)CO)c2cc[nH]c2n1 [GSK1392956A] | 95
CN(C)c1cc2c(Nc3ccc4c(cnn4Cc4ccccc4)c3)ncnc2cn1 [GW282974X] | 100
CC1=C(C(=O)Nc2ccc3[nH]ncc3c2)C(c2ccc3ccccc3c2)CC(=O)N1 (stereo not shown) [GSK270822A] | 83

# Percent Control of NS(=O)(=O)c1ccc(N/N=C2\C(=O)Nc3ccc(C(=O)NCc4ccncc4)cc32)cc1 [GW300657X] = 84
